Tested on: UACC-257 melanoma
Test: NCI-60 one-dose screen, 48 h (100 = growth as untreated, 0 = no growth, -100 = all killed)
Conditions: 10 µM unless noted
Compounds without any hit were thinned out: in the full panel of roughly 83,000, 20% have a hit.
Strictly below 70% in growth: label 1. Otherwise: label 0.

Examples with answers:
>  <Smiles Entry>
c1cc2ccc3cc2cc1CNCCOCCNCc1ccc2ccc(cc2c1)CNCCOCCNC3

>  <Target Under Test>
UACC-257 melanoma

>  <Answer Label>
label 1

$$$$
>  <Smiles Entry>
COc1ccc(N2CCN(c3nc(-c4cc(OC)c(OC)c(OC)c4)nc4ccccc34)CC2)cc1

>  <Target Under Test>
UACC-257 melanoma

>  <Answer Label>
label 0

$$$$
>  <Smiles Entry>
Cc1ccc(S(=O)(=O)NCC[C@@H]2C[C@H]2c2cc3ccccc3s2)cc1

>  <Target Under Test>
UACC-257 melanoma

>  <Answer Label>
label 0

$$$$
>  <Smiles Entry>
O=C1Nc2ccccc2/C1=C/c1cn(C(=O)c2c(Cl)cccc2Cl)c2ccccc12

>  <Target Under Test>
UACC-257 melanoma

>  <Answer Label>
label 0

$$$$
>  <Smiles Entry>
COc1cc(/C=C/C(=O)c2ccc(Nc3nc(Nc4ccc(F)cc4)nc(Nc4ccc(Cl)cc4)n3)cc2)cc(OC)c1OC

>  <Target Under Test>
UACC-257 melanoma

>  <Answer Label>
label 0

$$$$
>  <Smiles Entry>
Clc1cccc(Cl)c1C(Nc1nc2ccccc2s1)Nc1nc2ccccc2s1

>  <Target Under Test>
UACC-257 melanoma

>  <Answer Label>
label 0

$$$$
>  <Smiles Entry>
COc1cc(CCC[P+](c2ccccc2)(c2ccccc2)c2ccccc2)cc2c1OCO2

>  <Target Under Test>
UACC-257 melanoma

>  <Answer Label>
label 1

$$$$

Next molecule, please.
Dear reviewer, please state whether `CN(C)CCCn1c(=O)c2ccccc2c2ccccc21` has growth strictly beneath 70%.
label 0

---

As shown below, each of these compounds has a reported growth value.
Tested on: HS 578T breast
Assay: NCI-60 one-dose screen, 48 h (100 = growth as untreated, 0 = no growth, -100 = all killed)
Details: 10 µM unless noted
The panel holds about 83,000 compounds, 20% with a hit somewhere; the sample as a whole holds those more often.
Respond numerically; units are % and should not be typed.

>  <Compound>
O=C(/C=C/c1ccco1)c1ccc(Nc2nc(Nc3ccc(F)cc3)nc(Nc3ccc(Cl)cc3)n2)cc1

>  <Measure Unit>
%

>  <growth>
81.5

$$$$

// query growth value for entry CC1=CN2C(=O)C3C4=C(CCCC4)SC3N=C2CN1c1c(C)cccc1C (stereo not given)
103

If you can, please state the reported growth value of `Cc1cccc(NC(=O)CSc2nc3ccccc3[nH]2)c1` .
90.7

Look up growth: `CCOC(=O)C/C(C)=N\NC(=O)c1ccncc1`
115

So what does the record say about growth for N#Cc1c2c(nn(-c3ccccc3)c1=O)C(O)=C([N+](=O)[O-])C(c1ccccc1)C2 (stereo not given) ?
91

Requested field: growth. Item: `COc1ccc(NC(=O)CSc2nnc(-c3cc(-c4ccccc4)nc4ccccc34)n2-c2ccccc2)cc1`
94.7

Field request: growth | item: `Cc1cc(/C=C\c2ccc3ccccc3[n+]2C)c(O)c2ncccc12`
32.9

Consider the compound shown here: `Fc1ccc(CNc2c3ccccc3nc3ccccc23)cc1F` What is its recorded growth?
64.8

Look at this compound and give its reported growth. `COc1ccc(-c2nc(SCC(=O)Nc3nc(-c4ccccc4)cs3)[nH]c(=O)c2C#N)cc1`
78

Record request: growth value, item CCCCOc1nc2ccccc2cc1C1CNC(=O)c2ccccc2N1 (stereo not given)
34.1

---

System: CAKI-1 renal
Assay: NCI-60 one-dose screen, 48 h (100 = growth as untreated, 0 = no growth, -100 = all killed)
Conditions: 10 µM unless noted
About 83,000 compounds went through this panel and 20% of them were active in at least one assay; those are over-represented in the sample as a whole.
// growth lookup, one value per entry
Write the number in % without appending the unit.

Examples with answers:
>  <Compound>
COc1ccc(-c2nc(SCCC(C)C)nc(N/N=C\c3cccc([N+](=O)[O-])c3)c2C#N)cc1

>  <Target Under Test>
CAKI-1 renal

>  <Endpoint Result>
22.6

$$$$
>  <Compound>
O=C(NC(Cc1nnc2n(Cc3ccccc3)c(=O)c3c4c(sc3n12)CCCC4)c1ccc(Cl)cc1)c1ccccc1 (centres undefined)

>  <Target Under Test>
CAKI-1 renal

>  <Endpoint Result>
94.3

$$$$
>  <Compound>
CC(=O)[C@@H]1CC[C@]2(COS(=O)(=O)c3ccc(C)cc3)CC[C@]3(C)[C@H](CC[C@@H]4[C@@]5(C)CCCNC(C)(C)[C@@H]5CC[C@]43C)[C@@H]12

>  <Target Under Test>
CAKI-1 renal

>  <Endpoint Result>
82.7

$$$$
>  <Compound>
Cc1c(C(=O)N[C@@H](Cc2ccccc2)C(=O)C(=O)NCCc2ccccc2)[nH]c2ccccc2c1=O

>  <Target Under Test>
CAKI-1 renal

>  <Endpoint Result>
95.9

$$$$
>  <Compound>
COc1ccc2[nH]c(O)c(/C=c3/cc4c(c(-c5cc(OC)c(OC)c(OC)c5)n3)=Nc3ccccc3-4)c2c1

>  <Target Under Test>
CAKI-1 renal

>  <Endpoint Result>
71.6

$$$$
>  <Compound>
N#Cc1nc2c(S(=O)(=O)c3ccc(Cl)cc3)c(N)n(Nc3cccc(Cl)c3)c2nc1C#N

>  <Target Under Test>
CAKI-1 renal

>  <Endpoint Result>
88.5

$$$$
>  <Compound>
CCOc1c(C#N)nnc2c(C#N)c(NC(=O)c3ccccc3)nn12

>  <Target Under Test>
CAKI-1 renal

>  <Endpoint Result>
93.7

$$$$
>  <Compound>
C[C@@H]1N=C(c2ccc3ccccc3n2)Nc2nc3ccccn3c2C1=O

>  <Target Under Test>
CAKI-1 renal

>  <Endpoint Result>
82.1

$$$$

Which growth value belongs to `Cc1cc(N2CCCC2)nc(NCc2cc(Nc3ccnc4cc(Cl)ccc34)ccc2F)n1` ?
28.5

Query (compound): `C=CCn1c(C)nc2cc(Nc3nc(N4CCCC4)nc4ccccc34)ccc21` ; field requested: growth
84.9

Quick one: growth for `O=C(Nc1cccc(Oc2nnc(Cl)c3ccccc23)c1)Nc1ccc(Cl)c(C(F)(F)F)c1` ?
11.7

Look at this compound and give its reported growth. `O=C1/C(=C2/C=Nc3ccccc32)N(O)c2ccccc21`
57.8

Entry COc1cc(C2CC(=O)Nc3c2c(C)nn3-c2nc3ccccc3[nH]2)c(OC)c(OC)c1OC (centres undefined) has what growth?
43.6

Which growth reading was recorded for the compound CN(c1ccccc1)c1ccc2c(c1)OCCC21CC1Nc1cnccc1C(=O)O (centres undefined) ?
76.3

Give the measured growth of `CN1CCN(CCCOc2ccc3nc(Nc4ccc(F)c(F)c4)ccc3c2)CC1` .
73.3

Tell me the measured growth of `CCOc1ccccc1-c1cc(-c2cccs2)c(C#N)c(=O)[nH]1` , please.
76.1

---

Tested on: NCI-H522 lung
Experiment: NCI-60 one-dose screen, 48 h (100 = growth as untreated, 0 = no growth, -100 = all killed)
Conditions: 10 µM unless noted
About 83,000 compounds went through this panel and 20% of them were active in at least one assay; those are over-represented in the sample as a whole. Activity calls are given as the source filed them. How the source made its calls: active means growth percent below 10; inactive means the rest.
Assay Metric: growth

Use these answered entries as a reference point.
>  <Compound>
CC1OC(O[C@H]2/C=C/C=C/C=C/C=C/C=C/C=C/C=C/[C@H](C)[C@@H](O)[C@@H](C)[C@H](C)OC(=O)CC(O)CC(O)CCC(O)C(O)CC(O)C[C@]3(O)C[C@H](O)C(C(=O)O)C(C2)O3)C(O)[C@H](N)C1O (some centres undefined)

>  <growth>
16.2% (inactive)

$$$$
>  <Compound>
O=c1c2c3c(sc2n2c(-c4cn(-c5ccccc5)nc4-c4ccc(Cl)cc4)nnc2n1Cc1ccccc1)CCCC3

>  <growth>
77.5% (inactive)

$$$$
>  <Compound>
CN(C)CC1C(=O)O[C@H]2[C@H]1CC/C(COC(=O)c1cc3ccccc3[nH]1)=C\CC[C@@]1(C)O[C@@H]21 (some centres undefined)

>  <growth>
-91.2% (active)

$$$$

Shift focus to the following entry.
What measured growth goes with `N=C1CCC(=N)c2c1c(O)c1ccccc1c2O` ?
91.6% (inactive)

---

System: DU-145 prostate
Assay: NCI-60 one-dose screen, 48 h (100 = growth as untreated, 0 = no growth, -100 = all killed)
Details: 10 µM unless noted
About 83,000 compounds went through this panel and 20% of them were active in at least one assay; those are over-represented in the sample as a whole.
Assay Metric: growth (%)
I only need the number, in %, no unit after it.

What measured growth is associated with `CC(C)C(=O)Nc1n[nH]c2cc(-c3cccc(NS(=O)(=O)C4CC4)c3)ccc12` on DU-145 prostate?
85.9

// lookup growth | system=DU-145 prostate | key= `O=C(N/N=C/c1ccncc1)c1ccc(C(F)(F)F)nc1Nc1cccc(C(F)(F)F)c1`
40.6

Request body: readout growth, system DU-145 prostate, query `N#Cc1c(-c2ccccc2)cc(-c2ccc(Nc3nc(Nc4ccc(F)cc4)nc(Nc4ccc(F)cc4)n3)cc2)nc1N` . Return the value.
106

State its growth on DU-145 prostate: `COc1ccc(C(=O)/C=C/c2c(C(F)(F)F)nc3sccn23)cc1OC`
-24.6

Lab note: need growth for COc1cc(C2CC(=O)Nc3c2c(C)nn3-c2nc3ccccc3[nH]2)c(OC)c(OC)c1OC (stereo not drawn) on DU-145 prostate, anyone have it?
53.8

Entry `Cc1ccc(S(=O)(=O)Oc2cc(OS(=O)(=O)c3ccc(C)cc3)cc(OS(=O)(=O)c3ccc(C)cc3)c2)cc1` , system DU-145 prostate: what growth was measured?
108

Hi! What's the reported growth for `CCc1ccccc1NC(=O)/C(C#N)=C/c1ccc(OC)cc1` on DU-145 prostate?
100
